Taken from the OligoGym collection.

- assayedSystem: NUP188; note: reference of the scale not given here
- protocolText: pooled miR-30 sensor sort-seq; sequence = guide strand
- conditionSummary: shRNA
measuredMetric: sensor-assay potency score (higher = more potent)

- macromoleculeSequence: "TATTGGTCTGCCTACTACCAAA"
  assayedSystem: "NUP188"
  result: -1.79
- macromoleculeSequence: "TTACACAGGGTACAAGTCCTTG"
  assayedSystem: "NUP188"
  result: -0.672

Form field: reported sensor-assay potency score (higher = more potent) of "TTTTCTTGTCCAGCTCTCCAAG"
-0.925

What do we get for "TAGAACAGCAATGAGGTTGTTT" ?
0.0605

Check "TAATGCTGCAGCATCTTTCGAC" too.
-0.404
